System: Bacillus subtilis
Assay: Antimicrobial activity against Bacillus subtilis CGMCC 1.1162 after 24 hrs by modified microdilution method
Type: functional
Details: CGMCC 1.1162, 24 h
result-type: MIC (µg/mL)
Give just the number in µg/mL; leave the unit off.

Example cases with answers are listed next.
INSERT INTO assay_data (line_notation, value) VALUES
  ('COC(=O)[C@]1(C)CCC[C@]2(C)c3ccc(C(C)C)cc3-c3[nH]c4ccc(F)cc4c3[C@@H]12', 1.9),
  ('COC(=O)[C@]1(C)CCC[C@]2(C)c3ccc(C(C)C)cc3-c3[nH]c4ccc(C)cc4c3[C@@H]12', 31.2),
  ('COC(=O)[C@]1(C)CCC[C@]2(C)c3ccc(C(C)C)cc3-c3[nH]c4c(Br)cccc4c3[C@@H]12', 62.5);

Consider the compound `NCC[C@H](O)C(=O)N[C@@H]1C[C@H](N)[C@@H](O[C@H]2O[C@H](CN)[C@@H](O)[C@H](O)[C@H]2O)[C@H](O)[C@H]1O[C@H]1O[C@H](CO)[C@@H](O)[C@H](N)[C@H]1O` and give its measured MIC.
0.9

Consider the compound `COC(=O)[C@]1(C)CCC[C@]2(C)c3ccc(C(C)C)cc3C(=O)C[C@@H]12` and give its measured MIC.
31.2
